# Test system: LXRa homodimer (NR concentration 270 nM)
# test-summary: PBM binding z-score (relative to random genomic background probes); higher = stronger binding; sequences stand for … in GC…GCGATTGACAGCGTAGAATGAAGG
Reported PBM binding z-score maps to class as: c1: < -0.1; c2: ≥ -0.1 and < 0.4; c3: ≥ 0.4

IN: Category of `GCTGCTAGGTCAGGTTGATCAGCTAACGGGTACG` :
OUT: c1

More entries:
IN: Input `ATCTCTAGGAAACAAGTTCAGTGAAAGAGAGGAC` ; output its category
OUT: c2

IN: Band of `TAAGACAGGTGAAGGTAACTCAGGTACGCAGTCG` ?
OUT: c2

IN: Exercise: read the entry `TGTCAAAGTTCAAAGGAAACGTAAGTATCCACAC` and state which class it falls under.
OUT: c3
